B1: EEHEE_rd3_0130 (parent)
chain: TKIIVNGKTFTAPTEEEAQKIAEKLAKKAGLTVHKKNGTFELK

Variants of: B1
Test: folding stability dG (cDNA display proteolysis); higher = more stable
Conditions: PBS, room temperature
Returns the class for an entry based on its folding stability dG. Class ranges: class 1 (below 0.2 kcal/mol), class 2 (0.2 kcal/mol to below 0.9 kcal/mol), class 3 (0.9 kcal/mol or more)

A12H	class 2
E16H	class 2
E17M	class 3
E23R	class 2
T32D	class 1
K35W	class 3
E23Y	class 3
L25Y	class 2
K43G	class 2
H34N	class 2
N37E	class 2
K28H	class 2
T39M	class 3
N37L	class 2
K2C	class 3
V33S	class 1
L31Y	class 2
T39S	class 3
K20P	class 1
K27L	class 2
A26Q	class 1
G7K	class 1
L31Q	class 1
P13K	class 2
E23M	class 3
P13A	class 2
A18K	class 1
K8G	class 1
K24M	class 3
G7V	class 1
L31H	class 1
I21K	class 1
K28W	class 3
T14R	class 1
L25M	class 2
Q19Y	class 3
I4W	class 2
K36L	class 3
K2Y	class 2
K36T	class 3
I3E	class 1
T1H	class 3
A29L	class 3
T14K	class 1
T11Q	class 2
G30V	class 1
T1G	class 2
E15Y	class 3
I4R	class 2
L31E	class 1
K24I	class 3
G7T	class 1
K28T	class 2
F40I	class 2
F40Q	class 1
K8Y	class 3
K36Y	class 3
T32Y	class 1
E23I	class 2
T39Y	class 3
H34K	class 2
T32M	class 2
A29H	class 3
K24T	class 3
E17D	class 2
K2T	class 2
V5I	class 3
K24H	class 3
N37V	class 1
A22Y	class 1
T11F	class 3
I3Q	class 1
G30Y	class 1
E23S	class 2
G30Q	class 1
A29Q	class 2
A12K	class 1
E15S	class 2
F40N	class 1
A22W	class 1
N6V	class 1
K28M	class 3
E17G	class 2
T14W	class 1
E23G	class 2
A22F	class 1
K27A	class 2
E41Y	class 3
